What STK11 functional score was measured for each of the following?
B1: library; numbered along this chain (parent)
chain: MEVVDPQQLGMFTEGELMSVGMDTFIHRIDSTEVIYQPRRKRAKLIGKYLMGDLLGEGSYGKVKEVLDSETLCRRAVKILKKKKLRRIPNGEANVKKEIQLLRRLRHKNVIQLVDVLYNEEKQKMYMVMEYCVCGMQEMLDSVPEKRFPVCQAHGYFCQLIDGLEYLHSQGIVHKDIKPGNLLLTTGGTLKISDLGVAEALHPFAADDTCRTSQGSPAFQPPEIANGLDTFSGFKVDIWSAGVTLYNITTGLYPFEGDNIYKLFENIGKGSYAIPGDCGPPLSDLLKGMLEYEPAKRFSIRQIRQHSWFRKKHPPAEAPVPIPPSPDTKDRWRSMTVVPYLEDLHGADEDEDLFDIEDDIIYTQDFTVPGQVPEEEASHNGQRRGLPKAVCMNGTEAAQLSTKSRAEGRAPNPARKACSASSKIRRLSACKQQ

Variants of: B1
Experiment: STK11 functional score (HeLa growth suppression), rescaled enrichment; synonymous median = 1, nonsense median = 0 (normalised score)
Details: with HeLa; variant type: missense
Give the value as a plain number.

GET /value?item= `G135K` &field=STK11 functional score returns 1.63

GET /value?item= `S193K` &field=STK11 functional score returns 0.0789

GET /value?item= `R383K` &field=STK11 functional score returns 1.57

GET /value?item= `A218S` &field=STK11 functional score returns 1.09

GET /value?item= `L102R` &field=STK11 functional score returns 0.466

GET /value?item= `T363L` &field=STK11 functional score returns 1.17

GET /value?item= `S325Y` &field=STK11 functional score returns 0.029

GET /value?item= `G58W` &field=STK11 functional score returns 0.24

GET /value?item= `P294D` &field=STK11 functional score returns 0.708

GET /value?item= `L195D` &field=STK11 functional score returns 1.64

GET /value?item= `A43P` &field=STK11 functional score returns 1.37

GET /value?item= `Y261L` &field=STK11 functional score returns 0.609

GET /value?item= `K311P` &field=STK11 functional score returns 1.07

GET /value?item= `L9C` &field=STK11 functional score returns 1.54

GET /value?item= `I111F` &field=STK11 functional score returns 0.365

GET /value?item= `R310S` &field=STK11 functional score returns 1.54

GET /value?item= `L80I` &field=STK11 functional score returns 0.964

GET /value?item= `P254C` &field=STK11 functional score returns 0.821

GET /value?item= `L117F` &field=STK11 functional score returns 0.858

GET /value?item= `H202N` &field=STK11 functional score returns 0.176

GET /value?item= `A295S` &field=STK11 functional score returns 1.44

GET /value?item= `E65R` &field=STK11 functional score returns 0.846

GET /value?item= `D115P` &field=STK11 functional score returns 0.396

GET /value?item= `N412P` &field=STK11 functional score returns 1.56

GET /value?item= `R211H` &field=STK11 functional score returns 1.32

GET /value?item= `G163H` &field=STK11 functional score returns -0.383

GET /value?item= `V110G` &field=STK11 functional score returns 0.297

GET /value?item= `S428T` &field=STK11 functional score returns 1.56

GET /value?item= `H27V` &field=STK11 functional score returns 1.05

GET /value?item= `A198T` &field=STK11 functional score returns 1.23

GET /value?item= `I303M` &field=STK11 functional score returns 0.518

GET /value?item= `Q159Y` &field=STK11 functional score returns 1.03

GET /value?item= `E14W` &field=STK11 functional score returns 0.426

GET /value?item= `I356W` &field=STK11 functional score returns 1.66

GET /value?item= `F255Q` &field=STK11 functional score returns 0.98

GET /value?item= `C151N` &field=STK11 functional score returns 0.808

GET /value?item= `G227C` &field=STK11 functional score returns 0.981

GET /value?item= `P275S` &field=STK11 functional score returns 0.957

GET /value?item= `P314E` &field=STK11 functional score returns 1.54

GET /value?item= `Q364V` &field=STK11 functional score returns 1.11

GET /value?item= `T402H` &field=STK11 functional score returns 0.157

GET /value?item= `L102T` &field=STK11 functional score returns 0.0689

GET /value?item= `S325E` &field=STK11 functional score returns 1.24

GET /value?item= `D68Q` &field=STK11 functional score returns 0.949

GET /value?item= `G270A` &field=STK11 functional score returns 0.849

GET /value?item= `L285S` &field=STK11 functional score returns -0.0113

GET /value?item= `Y272S` &field=STK11 functional score returns 0.837

GET /value?item= `A205P` &field=STK11 functional score returns 0.302

GET /value?item= `C134A` &field=STK11 functional score returns 1.1

GET /value?item= `L67Y` &field=STK11 functional score returns 0.0744

GET /value?item= `T336W` &field=STK11 functional score returns 1.64

GET /value?item= `L263S` &field=STK11 functional score returns 1.18

GET /value?item= `G394S` &field=STK11 functional score returns 1.46

GET /value?item= `K97V` &field=STK11 functional score returns 0.998

GET /value?item= `K78D` &field=STK11 functional score returns -0.161

GET /value?item= `A241G` &field=STK11 functional score returns 0.802

GET /value?item= `M139V` &field=STK11 functional score returns 0.965

GET /value?item= `R211D` &field=STK11 functional score returns 1.68

GET /value?item= `V63N` &field=STK11 functional score returns 1.14

GET /value?item= `E14F` &field=STK11 functional score returns 1.13

GET /value?item= `Q364Y` &field=STK11 functional score returns 1.53

GET /value?item= `R409V` &field=STK11 functional score returns 1.22

GET /value?item= `A377G` &field=STK11 functional score returns 1.01

GET /value?item= `A206Q` &field=STK11 functional score returns 1.07

GET /value?item= `G288E` &field=STK11 functional score returns 1.5

GET /value?item= `F298I` &field=STK11 functional score returns 1.35

GET /value?item= `R106F` &field=STK11 functional score returns 1.56

GET /value?item= `K97L` &field=STK11 functional score returns 0.76

GET /value?item= `L102I` &field=STK11 functional score returns 1.26

GET /value?item= `R40I` &field=STK11 functional score returns 1.63

GET /value?item= `E407K` &field=STK11 functional score returns 1.55

GET /value?item= `A273C` &field=STK11 functional score returns 0.584

GET /value?item= `P281A` &field=STK11 functional score returns 0.84

GET /value?item= `L80H` &field=STK11 functional score returns 0.878

GET /value?item= `G227W` &field=STK11 functional score returns 1.29

GET /value?item= `I300A` &field=STK11 functional score returns 1.51

GET /value?item= `S422R` &field=STK11 functional score returns 1.47

GET /value?item= `Q302H` &field=STK11 functional score returns 1.12

GET /value?item= `N109G` &field=STK11 functional score returns 0.374

GET /value?item= `S142T` &field=STK11 functional score returns 1.47

GET /value?item= `P38E` &field=STK11 functional score returns 1.36

GET /value?item= `Y261T` &field=STK11 functional score returns 1.04

GET /value?item= `E57P` &field=STK11 functional score returns 1.62

GET /value?item= `I35L` &field=STK11 functional score returns 1.11

GET /value?item= `L160V` &field=STK11 functional score returns 1.26

GET /value?item= `G58R` &field=STK11 functional score returns -0.318

GET /value?item= `N181C` &field=STK11 functional score returns -0.0246

GET /value?item= `E291F` &field=STK11 functional score returns 0.825

GET /value?item= `G257I` &field=STK11 functional score returns 1.66

GET /value?item= `L67H` &field=STK11 functional score returns 0.361

GET /value?item= `D330I` &field=STK11 functional score returns 1.33
